Measured Dose values are reported for all entries that follow.
# Test system: P388
# methodNotes: In vivo for the optimal dose for activity against P388 leukemia per injection
# Type: functional, Mus musculus
Lab book: enter the figure in mg/kg, no units written.

# example entries with known answers
| entrySmiles | Dose, mg/kg |
| --- | --- |
| Br.CCN(CC)CCn1nc2c3c(c(NCCN)ccc31)Sc1ccccc1-2 | 12.5 |
| CCN(CC)CCn1nc2c3c(c(NCCN)ccc31)Sc1ccc(O)cc1-2.Cl.O | 0.8 |
| CCN(CC)CCn1nc2c3c(c(NCCN)ccc31)S(=O)(=O)c1ccccc1-2.Cl.O | 100 |
| CC(=O)OCCN(CCn1nc2c3c(c(N)ccc31)Sc1ccccc1-2)C(C)=O.Cl | 400 |

Please find the next compound below.
Form: compound = "CN(C)CCCn1nc2c3c(c(NCCN)ccc31)Sc1ccccc1-2.Cl.O" ; Dose = 12.5

----------
# System: P388 leukemia (mouse)
# methodNotes: Net log value for P388 leukemia cell kill in mice was determined
Recorded Net log cell kill for the following compounds
Write no unit; give the number alone.

Example cases with answers are listed next.
| entrySmiles | Net log cell kill |
| --- | --- |
| CCN(CC)CCn1nc2c3c(c(NCCN4CCOC4=O)ccc31)Sc1ccc(OC)cc1-2.Cl.O | 6 |
| CCN(CC)CCn1nc2c3c(c(NCCNCCO)ccc31)Sc1ccc(OC)cc1-2.Cl | 3.2 |
| CN(C)CCCn1nc2c3c(c(N)ccc31)Sc1ccccc1-2.Cl.O | 4 |
| CN(C)CCn1nc2c3c(c(N)ccc31)Sc1ccccc1-2.Cl.O | 1.8 |
| Br.CCN(CC)CCn1nc2c3c(c(NCCN)ccc31)Sc1cccc(O)c1-2 | 2.8 |
| CC(=O)NCCn1nc2c3c(c(N)ccc31)Sc1ccccc1-2.Cl | -1.7 |

Observed Net log cell kill on P388 leukemia (mouse), entry "CCN(CC)CCn1nc2c3c(c(NCCN)ccc31)Sc1ccc(OC)cc1-2.Cl.O" , equals 3.9

Readout Net log cell kill for "CCN(CC)CCn1nc2c3c(c(N)ccc31)Sc1c(OC)cccc1-2.Cl" , test system P388 leukemia (mouse), was -1.5

Param item: "CCN(CC)CCNc1ccc2c3c(nn2CCN(CC)CC)-c2ccccc2Sc13.Cl" ; param system: P388 leukemia (mouse); output Net log cell kill: 1.6

Net log cell kill on P388 leukemia (mouse) for "CC(=O)OCCN(CCn1nc2c3c(c(N)ccc31)Sc1ccccc1-2)C(C)=O.Cl" is -1.3

The compound "CCN(CC)CCn1nc2c3c(c(N)ccc31)Sc1ccccc1-2" on P388 leukemia (mouse): Net log cell kill was 2.2

Reading of Net log cell kill for "Cl.O.O=S1(=O)c2ccccc2-c2nn(CCNCCO)c3ccc(NCCNCCO)c1c23" with P388 leukemia (mouse): 2.5

Bench note, P388 leukemia (mouse): "CCN(CC)CCn1nc2c3c(c(NCCN)ccc31)Sc1cc(OC)ccc1-2.Cl.O" , Net log cell kill reads -0.4

Sample "CC(=O)NCCn1nc2c3c(c(NCCN4CCOC4=O)ccc31)Sc1ccccc1-2" , system: P388 leukemia (mouse). Its Net log cell kill is -1.6

----------
Documented Dose across a set of molecules
# Tested on: P388
# methodNotes: In vivo for the optimal dose for activity against P388 leukemia per injection
# Type: functional, Mus musculus
Write it as a number; the unit mg/kg goes unstated.

| entrySmiles | measurementName | experimentalResult |
| --- | --- | --- |
| Cl.NCCn1nc2c3c(c(N)ccc31)Sc1ccccc1-2 | Dose | 12.5 |
| CCN(CC)CCn1nc2c3c(c(NCCN)ccc31)Sc1cc(OC)ccc1-2.Cl.O | Dose | 25 |
| CCN(CC)CCNc1ccc2c3c(nn2CCNCCO)-c2ccccc2Sc13.Cl.O | Dose | 25 |
| CCN(CC)CCn1nc2c3c(c(NCCN4CCOC4=O)ccc31)Sc1ccc(O)cc1-2.Cl.O | Dose | 12.5 |
| O=C1c2c(O)ccc(O)c2C(=O)c2c(NCCNCCO)ccc(NCCNCCO)c21 | Dose | 1.25 |

Lookup result for "CCN(CC)CCn1nc2c3c(c(NC(=O)CN)ccc31)Sc1ccccc1-2.Cl.O" ; measured Dose: 20

Quick note, Dose for "CN(C)CCn1nc2c3c(c(N)ccc31)Sc1ccccc1-2.Cl.O" landed at 12.5

----------
# Test system: P388
# methodNotes: Percentage T/C survival (treated vs control) against P388 leukemia (day 30 surv)
# Assay type: functional, Mus musculus
T/C overview
// return numeric value only (unit: %, not printed)

| entrySmiles | measurementName | experimentalResult |
| --- | --- | --- |
| CCN(CC)CCn1nc2c3c(c(NCCN)ccc31)Sc1c(O)cccc1-2.Cl.O | T/C | 122 |
| CCN(CC)CCn1nc2c3c(c(NCCN4CCOC4=O)ccc31)Sc1ccc(OC)cc1-2.Cl.O | T/C | 220 |
| CCN(CC)CCn1nc2c3c(c(NC(=O)CN)ccc31)Sc1cc(O)ccc1-2.Cl.O | T/C | 195 |
| CCN(CC)CCn1nc2c3c(c(NCCNCCO)ccc31)Sc1ccccc1-2.Cl.O | T/C | 280 |
| CCN(CC)CCn1nc2c3c(c(NCCCN)ccc31)Sc1ccccc1-2.Cl.O | T/C | 262 |
| CCN(CC)CCn1nc2c3c(c(NCCN)ccc31)S(=O)(=O)c1ccccc1-2.Cl.O | T/C | 159 |

Form field T/C, entry "CCN(CC)CCNc1ccc2c3c(nn2CCN(CC)CC)-c2ccccc2S(=O)(=O)c13" : 101

Memo: "CC(=O)OCCN(CCn1nc2c3c(c(N)ccc31)Sc1ccccc1-2)C(C)=O.Cl" , reported T/C: 117

Notebook: "CN(C)CCn1nc2c3c(c(NCCN)ccc31)Sc1ccccc1-2.Cl.O" , T/C read as 270

----------
# System: P388
# methodNotes: Percentage T/C survival (treated vs control) against P388 leukemia (day 30 surv)
# Type: functional, Mus musculus
Entries and their measured T/C follow.
Express your answer as a number followed by its unit.

# annotated cases, reported T/C shown
| entrySmiles | T/C |
| --- | --- |
| CCN(CC)CCn1nc2c3c(c(NCCN)ccc31)Sc1cc(O)ccc1-2.Cl.O | 280% |
| CCN(CC)CCn1nc2c3c(c(NCCN)ccc31)Sc1cc(OC)ccc1-2.Cl.O | 133% |
| CC(=O)NCCn1nc2c3c(c(NCCN4CCOC4=O)ccc31)Sc1ccccc1-2 | 100% |
| Br.Nc1ccc2c3c(nn2CCNCCO)-c2cc(O)ccc2Sc13 | 192% |
| CCN(CC)CCn1nc2c3c(c(N)ccc31)Sc1c(OC)cccc1-2.Cl | 109% |
| CCN(CC)CCn1nc2c3c(c(NCCNCCO)ccc31)Sc1ccc(O)cc1-2.Cl.O | 200% |
| Br.CCN(CC)CCn1nc2c3c(c(NCCN)ccc31)Sc1cccc(O)c1-2 | 177% |
| COc1cccc2c1C(=O)c1c(O)c3c(c(O)c1C2=O)C[C@@](O)(C(=O)CO)C[C@@H]3O[C@H]1C[C@H](N)[C@H](O)[C@H](C)O1 | 232% |

Notebook: "O=C1c2c(O)ccc(O)c2C(=O)c2c(NCCNCCO)ccc(NCCNCCO)c21" , T/C read as 291%

The molecule listed as "Cl.NCCn1nc2c3c(c(N)ccc31)Sc1ccccc1-2" shows T/C equal to 181%

For reference, reported T/C for "CCN(CC)CCn1nc2c3c(c(NCCN)ccc31)Sc1ccc(O)cc1-2.Cl.O" stands at 186%

----------
# Tested on: P388
# methodNotes: In vivo for the optimal dose for activity against P388 leukemia per injection
# Type: functional, Mus musculus
Here, each record is paired with measured log10(Dose) data.
The common logarithm of Dose in mg/kg is what is listed.

| entrySmiles | log10(Dose) |
| --- | --- |
| CCN(CC)CCn1nc2c3c(c(NCCN4CCOC4=O)ccc31)Sc1ccc(OC)cc1-2.Cl.O | 2.00 |

For this compound ( "CCN(CC)CCn1nc2c3c(c(NCCCN)ccc31)Sc1ccccc1-2.Cl.O" ), measured log10(Dose) is 1.70

For "Cl.NCCn1nc2c3c(c(NCCNCCO)ccc31)Sc1ccccc1-2" the compound record lists log10(Dose) as 1.10

The reported log10(Dose) of the compound "CCN(CC)CCn1nc2c3c(c(NCCN)ccc31)Sc1ccc(OC)cc1-2.Cl.O" was 1.10

----------
# System: P388
# methodNotes: In vivo for the optimal dose for activity against P388 leukemia per injection
# Assay type: functional, Mus musculus
measurementName: Dose
Answer with the figure and its unit, nothing else.

Here are 5 compounds together with their reported answers.
| entrySmiles | experimentalResult |
| --- | --- |
| CCN(CC)CCn1nc2c3c(c(NCCNCCO)ccc31)Sc1ccccc1-2.Cl.O | 12.5 mg/kg |
| CCN(CC)CCn1nc2c3c(c(NCCNC(=O)OC(C)(C)C)ccc31)Sc1cc(OC)ccc1-2 | 6.3 mg/kg |
| CN(C)CCn1nc2c3c(c(NCCN)ccc31)Sc1ccccc1-2.Cl.O | 12.5 mg/kg |
| CCN(CC)CCn1nc2c3c(c(NCCN4C(=O)c5ccccc5C4=O)ccc31)Sc1c(OC)cccc1-2 | 12.5 mg/kg |
| CCN(CC)CCn1nc2c3c(c(NCCN4CCOC4=O)ccc31)Sc1ccccc1-2 | 100 mg/kg |

Memo: "COc1cccc2c1C(=O)c1c(O)c3c(c(O)c1C2=O)C[C@@](O)(C(=O)CO)C[C@@H]3O[C@H]1C[C@H](N)[C@H](O)[C@H](C)O1" , reported Dose: 2 mg/kg

Reference source: ChEMBL document CHEMBL1124226
